Sourced from ChEMBL document CHEMBL3098008

pIC50 listing for selected molecules.
Target: UniProt Q969S8
Experiment: Inhibition of human HDAC10 using RHKK(Ac) as substrate by fluorimetric analysis
Kindly note that pIC50 refers to -log10 of the concentration in mol/L and answer with the value alone.

O=C(CCCCC[C@H](NC(=O)C1CCNC1=O)C(=O)Nc1ccccc1)NO (stereo partly drawn) ... 6.83
O=C(CCCCCCC(=O)NCCc1ccccc1)NO ... 5.87

// moving on: another record for pIC50
*Q* Which measured pIC50 value corresponds to Cc1ccc(NC(=O)[C@H](CCCCCC(=O)NO)NC(=O)[C@H]2CCC(=O)N2)cc1 ?
*A* 6.79

----------
Molecular target: Polyamine deacetylase HDAC10 (Homo sapiens, UniProt Q969S8)
Sequence (Q969S8 whole entry): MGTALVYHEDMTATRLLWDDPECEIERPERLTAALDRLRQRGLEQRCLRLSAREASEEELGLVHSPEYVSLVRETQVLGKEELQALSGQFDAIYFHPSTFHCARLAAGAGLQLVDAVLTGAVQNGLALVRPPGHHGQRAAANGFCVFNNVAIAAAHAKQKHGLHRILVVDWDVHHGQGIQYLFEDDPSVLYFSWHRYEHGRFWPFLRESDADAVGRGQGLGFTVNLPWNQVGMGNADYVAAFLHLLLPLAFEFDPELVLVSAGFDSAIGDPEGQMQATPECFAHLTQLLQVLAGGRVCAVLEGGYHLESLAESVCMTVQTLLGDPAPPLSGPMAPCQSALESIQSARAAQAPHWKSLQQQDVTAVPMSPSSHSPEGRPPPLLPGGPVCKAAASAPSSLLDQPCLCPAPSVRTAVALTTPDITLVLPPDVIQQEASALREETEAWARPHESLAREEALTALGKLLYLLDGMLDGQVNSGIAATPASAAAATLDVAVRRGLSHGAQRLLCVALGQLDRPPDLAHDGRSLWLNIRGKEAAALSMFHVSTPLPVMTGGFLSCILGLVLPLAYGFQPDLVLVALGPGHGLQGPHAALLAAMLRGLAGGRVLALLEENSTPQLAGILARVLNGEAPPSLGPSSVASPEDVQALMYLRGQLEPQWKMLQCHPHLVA
Experiment: Inhibition of human HDAC10 using RHKK(Ac) as substrate by fluorimetric analysis
// boundary case: IC50 equal to 0.2 µM maps to f; strictly smaller maps to t

O=C(CCCCC[C@H](NC(=O)[C@H]1CCC(=O)N1)C(=O)Nc1ccccc1)NO ... t

*Q* IC50 under 0.2 µM? Item: O=C(CCCCC[C@H](NC(=O)[C@@H]1CCCC(=O)N1)C(=O)NCCc1ccccc1)NO
*A* f

----------
Target: Protein deacetylase HDAC6 (Homo sapiens, UniProt Q9UBN7)
Sequence (Q9UBN7 whole entry): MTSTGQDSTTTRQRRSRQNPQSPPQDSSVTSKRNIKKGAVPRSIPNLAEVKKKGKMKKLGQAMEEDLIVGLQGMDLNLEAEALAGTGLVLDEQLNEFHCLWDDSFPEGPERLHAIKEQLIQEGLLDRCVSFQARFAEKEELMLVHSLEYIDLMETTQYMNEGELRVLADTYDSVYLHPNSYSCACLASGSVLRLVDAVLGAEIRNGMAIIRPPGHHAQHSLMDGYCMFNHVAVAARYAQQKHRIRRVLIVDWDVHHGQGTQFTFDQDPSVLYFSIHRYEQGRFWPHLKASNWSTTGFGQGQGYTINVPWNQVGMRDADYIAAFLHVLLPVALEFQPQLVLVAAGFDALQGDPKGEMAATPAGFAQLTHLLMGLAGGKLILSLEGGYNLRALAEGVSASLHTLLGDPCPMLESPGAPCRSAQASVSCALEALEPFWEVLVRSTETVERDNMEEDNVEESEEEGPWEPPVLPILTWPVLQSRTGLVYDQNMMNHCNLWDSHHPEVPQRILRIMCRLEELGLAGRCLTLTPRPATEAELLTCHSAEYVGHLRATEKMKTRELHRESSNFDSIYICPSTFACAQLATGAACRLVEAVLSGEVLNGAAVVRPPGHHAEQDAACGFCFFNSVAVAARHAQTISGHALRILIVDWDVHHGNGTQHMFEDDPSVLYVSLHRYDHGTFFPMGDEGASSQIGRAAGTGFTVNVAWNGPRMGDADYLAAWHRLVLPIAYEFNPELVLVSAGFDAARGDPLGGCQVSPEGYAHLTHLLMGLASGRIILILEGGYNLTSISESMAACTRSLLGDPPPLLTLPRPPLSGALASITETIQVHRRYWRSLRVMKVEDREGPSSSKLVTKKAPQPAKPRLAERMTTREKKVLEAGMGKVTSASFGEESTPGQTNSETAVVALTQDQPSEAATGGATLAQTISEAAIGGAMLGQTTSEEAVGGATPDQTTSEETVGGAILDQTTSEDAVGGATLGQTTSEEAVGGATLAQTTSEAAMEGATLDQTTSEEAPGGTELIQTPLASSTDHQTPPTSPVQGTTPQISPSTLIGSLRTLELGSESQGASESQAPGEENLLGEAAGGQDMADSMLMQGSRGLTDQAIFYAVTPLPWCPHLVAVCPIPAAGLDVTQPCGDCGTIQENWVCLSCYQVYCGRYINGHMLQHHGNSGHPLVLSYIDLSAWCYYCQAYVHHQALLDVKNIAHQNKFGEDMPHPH
pIC50: −log10 of the molar value.
Kindly return satisfied if reported pIC50 is no lower than 8; return not satisfied if it is lower.

Known results for compounds:
O=C(CCCCC[C@H](NC(=O)[C@@H]1CC(=O)N1)C(=O)Nc1ccccc1)NO ... satisfied
O=C(CCCCC[C@H](NC(=O)C1CCNC1=O)C(=O)Nc1ccccc1)NO (stereo not given in full) ... satisfied
O=C(CCCCC[C@H](NC(=O)[C@@H]1CCCC(=O)N1)C(=O)NC1CCCC1)NO ... not satisfied
O=C(CCCCC[C@H](NC(=O)[C@@H]1CCCC(=O)N1)C(=O)Nc1ccccc1)NO ... satisfied
Cc1cccc(NC(=O)CCCCCCC(=O)NO)c1 ... not satisfied
O=C(CCCCCCC(=O)NC1CCCC1)NO ... not satisfied
Cc1ccc(NC(=O)[C@H](CCCCCC(=O)NO)NC(=O)[C@H]2CCC(=O)N2)cc1 ... satisfied

# evaluate next
*Q* Determine whether measured pIC50 meets or exceeds 8 for Cc1cccc(NC(=O)[C@H](CCCCCC(=O)NO)NC(=O)[C@H]2CCC(=O)N2)c1
*A* satisfied

----------
Target: Histone deacetylase 3/Nuclear receptor corepressor 2 (HDAC3/NCoR2) (Homo sapiens)
Sequence (O15379 whole entry): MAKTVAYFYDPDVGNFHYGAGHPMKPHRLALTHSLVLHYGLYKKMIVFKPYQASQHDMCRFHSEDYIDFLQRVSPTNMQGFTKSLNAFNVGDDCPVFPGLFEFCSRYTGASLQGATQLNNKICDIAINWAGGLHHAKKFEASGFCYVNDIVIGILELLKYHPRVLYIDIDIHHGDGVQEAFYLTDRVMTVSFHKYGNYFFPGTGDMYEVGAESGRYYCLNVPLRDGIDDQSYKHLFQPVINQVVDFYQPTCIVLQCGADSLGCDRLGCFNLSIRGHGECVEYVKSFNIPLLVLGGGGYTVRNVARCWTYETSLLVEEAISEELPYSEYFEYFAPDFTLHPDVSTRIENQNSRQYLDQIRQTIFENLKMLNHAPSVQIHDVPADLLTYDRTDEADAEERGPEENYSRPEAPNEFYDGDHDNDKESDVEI
Sequence (Q9Y618 whole entry, further chain): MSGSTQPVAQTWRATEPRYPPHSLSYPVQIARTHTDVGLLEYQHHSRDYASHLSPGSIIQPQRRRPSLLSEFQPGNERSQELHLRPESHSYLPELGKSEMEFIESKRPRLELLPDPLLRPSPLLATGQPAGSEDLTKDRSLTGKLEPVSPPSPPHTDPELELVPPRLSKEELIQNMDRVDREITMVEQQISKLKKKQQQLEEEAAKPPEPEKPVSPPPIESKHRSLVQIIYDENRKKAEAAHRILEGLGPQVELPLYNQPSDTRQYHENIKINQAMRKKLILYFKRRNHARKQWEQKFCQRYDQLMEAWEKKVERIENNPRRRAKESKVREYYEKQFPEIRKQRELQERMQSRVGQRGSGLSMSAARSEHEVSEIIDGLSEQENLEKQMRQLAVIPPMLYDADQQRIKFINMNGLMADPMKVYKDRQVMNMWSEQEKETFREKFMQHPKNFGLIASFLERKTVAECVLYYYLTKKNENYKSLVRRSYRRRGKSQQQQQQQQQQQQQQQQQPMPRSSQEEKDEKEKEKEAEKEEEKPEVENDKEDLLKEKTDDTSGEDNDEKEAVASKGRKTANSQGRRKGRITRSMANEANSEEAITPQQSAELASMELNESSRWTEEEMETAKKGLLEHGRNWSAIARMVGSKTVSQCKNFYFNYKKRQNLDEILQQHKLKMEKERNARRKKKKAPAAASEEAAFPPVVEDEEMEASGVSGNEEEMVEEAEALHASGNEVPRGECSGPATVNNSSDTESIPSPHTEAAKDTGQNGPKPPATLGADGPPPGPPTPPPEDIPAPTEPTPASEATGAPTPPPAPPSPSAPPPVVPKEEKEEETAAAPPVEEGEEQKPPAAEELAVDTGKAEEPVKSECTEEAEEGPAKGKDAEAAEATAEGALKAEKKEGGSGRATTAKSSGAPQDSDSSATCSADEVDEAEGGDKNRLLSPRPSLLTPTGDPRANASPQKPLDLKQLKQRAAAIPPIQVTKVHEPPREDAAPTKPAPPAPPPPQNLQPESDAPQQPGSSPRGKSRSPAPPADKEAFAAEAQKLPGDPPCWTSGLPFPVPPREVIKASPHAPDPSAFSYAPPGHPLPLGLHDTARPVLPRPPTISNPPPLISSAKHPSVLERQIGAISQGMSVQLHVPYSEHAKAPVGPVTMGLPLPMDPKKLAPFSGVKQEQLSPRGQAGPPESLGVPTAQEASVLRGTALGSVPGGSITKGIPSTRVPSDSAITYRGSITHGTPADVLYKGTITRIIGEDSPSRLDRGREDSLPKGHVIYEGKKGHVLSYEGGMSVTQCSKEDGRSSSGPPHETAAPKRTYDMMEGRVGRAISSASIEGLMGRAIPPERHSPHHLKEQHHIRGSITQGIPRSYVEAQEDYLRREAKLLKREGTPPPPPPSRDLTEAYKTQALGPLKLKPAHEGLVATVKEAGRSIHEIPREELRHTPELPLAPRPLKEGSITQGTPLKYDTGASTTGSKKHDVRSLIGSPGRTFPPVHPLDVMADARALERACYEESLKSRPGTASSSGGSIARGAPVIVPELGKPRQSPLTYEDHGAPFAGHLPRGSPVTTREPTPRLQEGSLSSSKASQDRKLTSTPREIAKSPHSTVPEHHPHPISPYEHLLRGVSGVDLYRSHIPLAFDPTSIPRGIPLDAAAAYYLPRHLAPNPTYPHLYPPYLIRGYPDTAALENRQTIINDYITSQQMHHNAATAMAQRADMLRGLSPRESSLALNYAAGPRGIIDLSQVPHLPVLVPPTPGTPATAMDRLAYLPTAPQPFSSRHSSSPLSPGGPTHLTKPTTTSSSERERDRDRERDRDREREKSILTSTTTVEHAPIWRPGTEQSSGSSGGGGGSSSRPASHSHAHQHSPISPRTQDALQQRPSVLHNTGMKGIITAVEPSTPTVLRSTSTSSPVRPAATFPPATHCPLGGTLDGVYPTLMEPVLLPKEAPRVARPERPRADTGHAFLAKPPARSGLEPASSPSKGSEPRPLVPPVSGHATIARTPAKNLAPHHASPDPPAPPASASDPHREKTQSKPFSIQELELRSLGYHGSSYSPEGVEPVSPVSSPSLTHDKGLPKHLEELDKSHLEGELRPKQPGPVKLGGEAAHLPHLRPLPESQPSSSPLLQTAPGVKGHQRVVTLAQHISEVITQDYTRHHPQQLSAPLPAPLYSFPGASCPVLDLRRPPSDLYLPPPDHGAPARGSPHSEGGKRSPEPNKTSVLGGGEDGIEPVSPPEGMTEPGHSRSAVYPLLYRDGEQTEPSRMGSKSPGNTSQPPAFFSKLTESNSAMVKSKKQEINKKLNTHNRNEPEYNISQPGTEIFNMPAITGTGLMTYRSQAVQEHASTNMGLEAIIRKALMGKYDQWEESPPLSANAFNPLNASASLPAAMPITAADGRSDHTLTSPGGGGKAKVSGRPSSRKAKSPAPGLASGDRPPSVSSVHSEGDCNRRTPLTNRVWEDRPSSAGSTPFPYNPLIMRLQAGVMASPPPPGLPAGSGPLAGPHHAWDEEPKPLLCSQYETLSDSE
Assay: Inhibition of human HDAC3/NCOR2 using RHKK(Ac) as substrate by fluorimetric analysis
pIC50: −log10 of the molar value.
Kindly return TRUE if reported pIC50 is no lower than 7; return FALSE if it is lower.

Cc1cccc(NC(=O)CCCCCCC(=O)NO)c1 ... FALSE

*Q* Determine whether measured pIC50 meets or exceeds 7 for O=C(CCCCC[C@H](NC(=O)[C@H]1CCC(=O)N1)C(=O)Nc1cccc(C(F)(F)F)c1)NO
*A* TRUE

*Q* Determine whether measured pIC50 meets or exceeds 7 for O=C(CCCCC[C@H](NC(=O)[C@@H]1CCCC(=O)N1)C(=O)NC1CCCC1)NO
*A* FALSE

----------
These records show IC50 for Histone deacetylase 2 (Homo sapiens).

Use these answered entries as a reference point.
O=C(CCCCC[C@H](NC(=O)[C@H]1CCC(=O)N1)C(=O)Nc1ccccc1)NO ... 142 nM
O=C(CCCCC[C@H](NC(=O)C1CCCNC1=O)C(=O)Nc1ccccc1)NO (stereo partly specified) ... 689 nM
O=C(CCCCCCC(=O)NCCc1ccccc1)NO ... 5160 nM

*Q* Given the entry O=C(CCCCCCC(=O)Nc1cccc(C(F)(F)F)c1)NO , what IC50 was observed with Histone deacetylase 2 (Homo sapiens)?
*A* 165 nM

*Q* Given the entry O=C(CCCCC[C@H](NC(=O)[C@@H]1CCCC(=O)N1)C(=O)NC1CCCC1)NO , what IC50 was observed with Histone deacetylase 2 (Homo sapiens)?
*A* 5040 nM

----------
Target: Histone deacetylase 3/Nuclear receptor corepressor 2 (HDAC3/NCoR2) (Homo sapiens)
Assay: Inhibition of human HDAC3/NCOR2 using RHKK(Ac) as substrate by fluorimetric analysis
// boundary case: IC50 equal to 70 nM maps to -1; strictly smaller maps to 1

*Q* IC50 under 70 nM? Item: O=C(CCCCC[C@H](NC(=O)[C@@H]1CCCC(=O)N1)C(=O)Nc1ccccc1)NO
*A* 1

*Q* IC50 under 70 nM? Item: O=C(CCCCCCC(=O)NC1CCCC1)NO
*A* -1

*Q* IC50 under 70 nM? Item: O=C(CCCCC[C@H](NC(=O)C1C(=O)NCC1c1ccccc1)C(=O)Nc1ccccc1)NO (stereo partly specified)
*A* 1

*Q* IC50 under 70 nM? Item: Cc1ccc(NC(=O)CCCCCCC(=O)NO)cc1
*A* -1

*Q* IC50 under 70 nM? Item: Cc1cccc(NC(=O)[C@H](CCCCCC(=O)NO)NC(=O)[C@H]2CCC(=O)N2)c1
*A* 1

*Q* IC50 under 70 nM? Item: O=C(CCCCC[C@H](NC(=O)C1CCNC1=O)C(=O)Nc1ccccc1)NO (stereo partly specified)
*A* -1

*Q* IC50 under 70 nM? Item: O=C(CCCCCCC(=O)Nc1cccc(C(F)(F)F)c1)NO
*A* -1

*Q* IC50 under 70 nM? Item: O=C(CCCCC[C@H](NC(=O)[C@H]1CCC(=O)N1)C(=O)Nc1ccccc1)NO
*A* 1

*Q* IC50 under 70 nM? Item: O=C(CCCCC[C@H](NC(=O)[C@@H]1CCCC(=O)N1)C(=O)NCCc1ccccc1)NO
*A* -1

*Q* IC50 under 70 nM? Item: O=C(CCCCC[C@H](NC(=O)C1CCCNC1=O)C(=O)Nc1ccccc1)NO (stereo partly specified)
*A* -1

*Q* IC50 under 70 nM? Item: O=C(CCCCCCC(=O)NCCc1ccccc1)NO
*A* -1

----------
Target protein (sequence): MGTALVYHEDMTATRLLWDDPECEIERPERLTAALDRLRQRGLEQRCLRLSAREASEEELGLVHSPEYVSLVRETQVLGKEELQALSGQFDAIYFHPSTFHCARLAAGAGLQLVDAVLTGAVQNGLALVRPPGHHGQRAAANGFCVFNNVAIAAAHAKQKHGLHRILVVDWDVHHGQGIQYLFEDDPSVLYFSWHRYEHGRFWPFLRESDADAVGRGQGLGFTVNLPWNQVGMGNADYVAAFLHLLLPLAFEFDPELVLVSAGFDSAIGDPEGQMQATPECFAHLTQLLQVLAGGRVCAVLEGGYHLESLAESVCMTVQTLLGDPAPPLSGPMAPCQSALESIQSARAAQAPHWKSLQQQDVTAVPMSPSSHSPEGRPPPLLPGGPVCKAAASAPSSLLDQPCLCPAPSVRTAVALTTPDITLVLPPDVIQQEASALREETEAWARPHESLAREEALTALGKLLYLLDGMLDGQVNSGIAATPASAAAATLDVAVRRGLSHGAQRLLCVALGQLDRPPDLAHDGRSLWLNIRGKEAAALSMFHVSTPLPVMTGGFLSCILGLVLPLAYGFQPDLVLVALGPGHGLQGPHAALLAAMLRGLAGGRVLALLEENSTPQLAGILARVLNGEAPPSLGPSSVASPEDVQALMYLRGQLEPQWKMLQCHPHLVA
IC50 listing for selected molecules.
I only need the number, in nM, no unit after it.

Use these answered entries as a reference point.
O=C(CCCCC[C@H](NC(=O)[C@@H]1CC(=O)N1)C(=O)Nc1ccccc1)NO ... 113
O=C(CCCCC[C@H](NC(=O)C1C(=O)NCC1c1ccccc1)C(=O)Nc1ccccc1)NO (stereo not given in full) ... 88
O=C(CCCCC[C@H](NC(=O)[C@H]1CCC(=O)N1)C(=O)Nc1cccc(C(F)(F)F)c1)NO ... 10.6

*Q* Which measured IC50 value corresponds to O=C(CCCCC[C@H](NC(=O)[C@@H]1CCC(=O)N1)C(=O)Nc1ccccc1)NO ?
*A* 125

*Q* Which measured IC50 value corresponds to O=C(CCCCCCC(=O)Nc1cccc(C(F)(F)F)c1)NO ?
*A* 374
